- Measured On: Anti-CD28 Fab (SEQ ID NOs: 696, 697)
- Sequence (VH, as listed by the source, chain 1 of 2): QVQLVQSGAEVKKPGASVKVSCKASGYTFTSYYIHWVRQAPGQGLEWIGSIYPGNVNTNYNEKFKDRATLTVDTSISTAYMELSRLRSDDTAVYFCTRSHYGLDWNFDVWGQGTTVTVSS
- Sequence (VL, as listed by the source, chain 2 of 2): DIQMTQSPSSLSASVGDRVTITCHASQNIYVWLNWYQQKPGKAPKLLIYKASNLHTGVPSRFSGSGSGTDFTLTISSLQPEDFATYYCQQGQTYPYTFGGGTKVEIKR
- Test Method Notes: phage binding ELISA; biotinylated anti-CD28 Fab on neutravidin plate, clonal phage supernatant, anti-M13 HRP;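 also: crude clonal phage supernatants screened after wells were preincubated either with CD28 antigen in blocking buffer or with blocking buffer only, phage added without washing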
Where no end group is shown, it is not given here.
Measurement Kind: Anti-CD28 Fab (SEQ ID NOs: 696, 697) signal

- YCDGHEQQYMEKCL (cysteine pairing not given here; also: displayed on phage by fusion to pIII, linker and pIII sequence not given here, Clonal phage of the Peptide-87 library; not shown: fused to the pIII filament of the bacteriophage) [Phage-1172]: 1.14
- YCDGHVVEYMSKCL (cysteine pairing not given here; also: displayed on phage by fusion to pIII, linker and pIII sequence not given here, Clonal phage of the Peptide-87 library; not shown: fused to the pIII filament of the bacteriophage) [Phage-1178]: 1.12
- YCEGHVAEYRAKCL (cysteine pairing not given here; also: displayed on phage by fusion to pIII, linker and pIII sequence not given here, Clonal phage of the Peptide-87 library; not shown: fused to the pIII filament of the bacteriophage) [Phage-1169]: 1.15
- YCEGHAEQYMKKCL (cysteine pairing not given here; also: displayed on phage by fusion to pIII, linker and pIII sequence not given here, Clonal phage of the Peptide-87 library; not shown: fused to the pIII filament of the bacteriophage) [Phage-1177]: 1.12
- YCDGHIWPWIEKCL (cysteine pairing not given here; also: displayed on phage by fusion to pIII, linker and pIII sequence not given here, Clonal phage of the Peptide-87 library; not shown: fused to the pIII filament of the bacteriophage) [Phage-1180]: 1.11
- YCAGHLPQYMHKCL (cysteine pairing not given here; also: displayed on phage by fusion to pIII, linker and pIII sequence not given here, Clonal phage of the Peptide-87 library; not shown: fused to the pIII filament of the bacteriophage) [Phage-1179]: 1.11
